Where do the numbers come from? From patent US20260015350A1.

Test system: KRas-mediated phosphorylation of ERK in MKN1 cells
assay explanation: Inhibition of KRas-mediated phosphorylation of ERK (Cisbio HTRF pERK), MKN1 cells
Assay type: cell-based
assay conditions: Homo sapiens, MKN-1
property: IC50 (nM)

Observe how each entry below is paired with its result.
>>> result_number("CCc1c(F)ccc2cc(O)cc(-c3ncc4c(N5CCC[C@@]6(CC[S@+]([O-])C6)C5)nc(OC[C@@]56CCCN5C[C@H](F)C6)nc4c3F)c12 (single isomer, unassigned)")
834
>>> result_number("CCc1cccc2cc3[nH]ncc3c(-c3ncc4c(N5C[C@@H]6C[C@H](C5)[C@H](O)C6)nc(OC[C@@]56CCCN5C[C@H](F)C6)nc4c3F)c12")
32
>>> result_number("CCc1c(F)ccc2cc(O)cc(-c3ncc4c(N5CC6CCC(C5)C6CC(=O)N(C)C)nc(OC[C@@]56CCCN5C[C@H](F)C6)nc4c3F)c12 (some centres unmarked)")
7
>>> result_number("CCc1c(F)ccc2cc(O)cc(-c3ncc4c(N5CCC[C@@](C)(O)C5)nc(OC[C@@]56CCCN5[C@@H](CNS(=O)(=O)N(C)C)CC6)nc4c3F)c12")
13
>>> result_number("CCc1c(F)ccc2cc(O)cc(-c3ncc4c(N5CCCS(=O)(=O)CC5)nc(OC[C@@]56CCCN5C[C@H](F)C6)nc4c3F)c12")
312

A. CCc1c(F)ccc2cc(O)cc(-c3ncc4c(N5CC6CCC(C5)C6C#N)nc(OC[C@@]56CCCN5C[C@H](F)C6)nc4c3F)c12 (some centres unmarked) [Example 559]
B. CCc1c(F)ccc2cc(O)cc(-c3ncc4c(N5CC6CCC(C5)C6C#N)nc(OC[C@@]56CCCN5C[C@H](F)C6)nc4c3F)c12 (single isomer, unassigned) [Example 561]
Prompt line: // which entry has the larger IC50 value, A or B ? Identify your selection by its label.
Response line: A

a. CCc1c(F)ccc2cc(O)cc(-c3ncc4c(N5CCCn6nc(C(=O)N(C)C)cc6C5)nc(OCC56CCCN5C/C(=C\F)C6)nc4c3F)c12 (centres unmarked)
b. CCc1c(F)ccc2cc(O)cc(-c3ncc4c(N5CCCn6nc(C(=O)N(C)C)cc6C5)nc(OC[C@]56CCCN5[C@H](COC(=O)N(C)C)CC6)nc4c3F)c12
c. CCc1c(F)ccc2cc(O)cc(-c3ncc4c(N5CCC[C@]6(C5)NC(=O)NC6=O)nc(OCC56CCCN5C/C(=C\F)C6)nc4c3F)c12 (some centres unmarked)
d. CCc1c(F)ccc2cc(O)cc(-c3ncc4c(N5CCC[C@@](C)(O)C5)nc(OC[C@@]56CCCN5[C@@H](COC)CC6)nc4c3F)c12
Prompt line: // ascending sort on recorded IC50 Respond with an ordered listing of the labels, as requested.
Response line: c, a, d, b

---

assay system: KRas^G13D (Homo sapiens, UniProt P01116, G13D)
Construct: Biotinylated KRas (corresponding to amino acids 1-169, produced at Accelegan Inc.); biotin (biotinylated); purchased Accelegan Inc
Sequence (P01116 1-169 isoform P01116-2 G13D): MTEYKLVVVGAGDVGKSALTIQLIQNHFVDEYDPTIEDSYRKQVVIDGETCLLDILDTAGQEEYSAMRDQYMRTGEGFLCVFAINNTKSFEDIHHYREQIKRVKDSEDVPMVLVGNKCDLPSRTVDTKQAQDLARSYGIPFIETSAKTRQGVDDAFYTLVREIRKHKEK
assay explanation: KRas binding assay (TR-FRET tracer displacement), KRas G13D
assay conditions: TR-FRET tracer displacement, KRas G13D
property: IC50 (nM)

>>> result_number("Oc1cc2ccccc2c(-c2ncc3c(N4C[C@@H]5C[C@H](C4)[C@H](O)C5)nc(OC[C@@]45CCCN4C[C@H](F)C5)nc3c2F)c1F")
172
>>> result_number("CN(C)C(=O)c1cc2n(n1)CCCN(c1nc(OCC34CCCN3CCC4)nc3c(F)c(-c4c5ccccc5cc5[nH]ncc45)ncc13)C2")
238
>>> result_number("O=C1NCC2(CCCN(c3nc(OCC45CCCN4CCC5)nc4c(F)c(-c5cc(O)cc(Cl)c5C5CC5)ncc34)C2)N1 (stereo not drawn)")
3
>>> result_number("Oc1cc(-c2ncc3c(N4C[C@@H]5C[C@H](C4)[C@H](O)C5)nc(OC[C@@]45CCCN4C[C@H](F)C5)nc3c2F)c2ccc(Cl)cc2c1")
36

A. CCc1cccc2cc3[nH]ncc3c(-c3ncc4c(N5CCCC6(CNS(=O)(=O)N6)C5)nc(OC[C@@]56CCCN5C[C@H](F)C6)nc4c3F)c12 (stereo partly drawn)
B. CCc1cccc2cc3[nH]ncc3c(-c3ncc4c(N5CCCn6nc(C(=O)N(C)C)cc6C5)nc(OC[C@@]56CCCN5C[C@H](F)C6)nc4c3F)c12
Prompt line: Could you tell me which of A and B has the lower IC50 reading? Identify your selection by its label.
Response line: A

---

assay system: KRas^G12V (Homo sapiens, UniProt P01116, G12V)
Construct: Biotinylated KRas (corresponding to amino acids 1-169, produced at Accelegan Inc.); biotin (biotinylated); purchased Accelegan Inc
Sequence (P01116 1-169 isoform P01116-2 G12V): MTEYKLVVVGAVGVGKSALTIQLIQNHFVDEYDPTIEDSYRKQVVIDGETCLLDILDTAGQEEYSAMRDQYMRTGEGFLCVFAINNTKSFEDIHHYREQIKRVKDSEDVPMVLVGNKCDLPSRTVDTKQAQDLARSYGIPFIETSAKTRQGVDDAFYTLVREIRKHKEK
assay explanation: KRas binding assay (TR-FRET tracer displacement), KRas G12V
property: IC50 (nM)

Observe how each entry below is paired with its result.
>>> result_number("CCc1c(F)ccc2cc(O)cc(-c3ncc4c(N5CC6CCC(C(N)=O)(C6)C5)nc(OC[C@@]56CCCN5C[C@H](F)C6)nc4c3F)c12 (stereo partly shown)")
3
>>> result_number("C[C@@]1(O)CCCN(c2nc(OC[C@@]34CCCN3C[C@H](F)C4)nc3c(F)c(-c4cc(O)cc5ccccc45)ncc23)C1")
7
>>> result_number("CCc1c(F)ccc2cc(O)cc(-c3ncc4c(N5CC6(C)CC(CO)(C5)C6)nc(OC[C@@]56CCCN5C[C@H](F)C6)nc4c3F)c12")
908

1. CCc1c(F)ccc2cc(O)cc(-c3ncc4c(N5CC=CCC5)nc(OC[C@@]56CCCN5C[C@H](F)C6)nc4c3F)c12
2. CCc1c(F)ccc2cc(O)cc(-c3ncc4c(N5CCCn6nc(C(=O)N(C)C)cc6C5)nc(N5CC(N(C)C)C5)nc4c3F)c12
Prompt line: Could you tell me which of 1 and 2 has the lower IC50 reading? Identify your selection by its label.
Response line: 1

---

assay system: KRas^G12S (Homo sapiens, UniProt P01116, G12S)
Construct: Biotinylated KRas (corresponding to amino acids 1-169, produced at Accelegan Inc.); biotin (biotinylated); purchased Accelegan Inc
Sequence (P01116 1-169 isoform P01116-2 G12S): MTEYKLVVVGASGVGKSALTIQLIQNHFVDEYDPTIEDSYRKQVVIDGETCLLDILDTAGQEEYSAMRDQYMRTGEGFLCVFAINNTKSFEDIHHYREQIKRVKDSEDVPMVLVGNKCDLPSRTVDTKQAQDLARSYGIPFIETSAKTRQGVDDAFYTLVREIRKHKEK
assay explanation: KRas binding assay (TR-FRET tracer displacement), KRas G12S
assay conditions: TR-FRET tracer displacement, KRas G12S
property: IC50 (nM)

>>> result_number("CCc1c(F)ccc2cc(O)cc(-c3ncc4c(N5CC[C@H]6C(=O)O[C@H]6C5)nc(OC[C@@]56CCCN5C[C@H](F)C6)nc4c3F)c12")
2

1. Oc1cc(Cl)c(C2CC2)c(-c2ncc3c(N4CCC[C@]5(C4)C[C@@H](O)C5)nc(OCC45CCCN4CCC5)nc3c2F)c1
2. CCc1cccc2cc3[nH]ncc3c(-c3ncc4c(N5CCCC6(CNS(=O)(=O)N6)C5)nc(OC[C@@]56CCCN5C[C@H](F)C6)nc4c3F)c12 (stereo partly drawn)
Prompt line: Could you tell me which of 1 and 2 has the lower IC50 reading? Identify your selection by its label.
Response line: 2

---

Tested on: KRas-mediated phosphorylation of ERK in MKN1 cells
assay explanation: Inhibition of KRas-mediated phosphorylation of ERK (Cisbio HTRF pERK), MKN1 cells
Format: cell-based
assay conditions: Homo sapiens, MKN-1
property: IC50 (nM)

a. CCc1c(F)ccc2cc(O)cc(-c3ncc4c(N5CCCOC(CCOC)C5)nc(OC[C@@]56CCCN5C[C@H](F)C6)nc4c3F)c12 (stereo partly drawn)
b. C[C@@H]1C[C@@H]1c1c(Cl)cc(O)cc1-c1ncc2c(N3CCC[C@]4(C3)NC(=O)NC4=O)nc(OCC34CCCN3C/C(=C\F)C4)nc2c1F (stereo partly drawn)
c. CCc1c(F)ccc2cc(O)cc(-c3ncc4c(N5CCC[C@@](C)(O)C5)nc(OC[C@@]56CCCN5[C@H](COC)CC6)nc4c3F)c12
Prompt line: Order the entries above by descending IC50. Respond with an ordered listing of the labels, as requested.
Response line: a, c, b

---

assay system: KRas^WT (Homo sapiens)
Construct: Biotinylated KRas (corresponding to amino acids 1-169, produced at Accelegan Inc.); biotin (biotinylated); purchased Accelegan Inc
Sequence (P01116 1-169 isoform P01116-2): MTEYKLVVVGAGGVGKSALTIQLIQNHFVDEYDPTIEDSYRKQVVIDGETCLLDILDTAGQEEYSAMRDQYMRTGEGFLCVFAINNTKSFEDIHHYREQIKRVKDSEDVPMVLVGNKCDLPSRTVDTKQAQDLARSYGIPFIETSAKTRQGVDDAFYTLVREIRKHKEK
assay explanation: KRas binding assay (TR-FRET tracer displacement), KRas WT
assay conditions: TR-FRET tracer displacement, KRas WT
property: IC50 (nM)

>>> result_number("Cc1cc2[nH]ncc2c(-c2ncc3c(N4CCCn5nc(C(=O)N(C)C)cc5C4)nc(OCC45CCCN4CCC5)nc3c2F)c1C [Example 730]")
343

P. C#Cc1c(F)ccc2cc(O)cc(-c3ncc4c(N5CCCC6(CCO6)C5)nc(OC[C@@]56CCCN5C[C@H](F)C6)nc4c3F)c12 (stereo partly drawn) [Example 935]
Q. Oc1cc(-c2ncc3c(N4C[C@@H]5C[C@H](C4)[C@H](O)C5)nc(OC[C@@]45CCCN4C[C@H](F)C5)nc3c2F)c2ccccc2c1 [Example 737]
Prompt line: Could you tell me which of P and Q has the lower IC50 reading? Identify your selection by its label.
Response line: P
(P: 7 nM, Q: 13 nM)
